viability, T/C listing for selected compounds.
System: 377384-186-R-J1-PDC complex spheroid viability
Experiment: Anticancer human tumor 377384-186-R-J1-PDC patient-derived pancreatic carcinoma cell line growth inhibition [RAS]
Details: second compound 0.316 µM; first compound 1 µM; active compounds read low
Write down the numeric answer in % and omit the unit.

The value of viability, T/C measured for the compound CCC(CC)c1cc(NC2CCC(N)C2)n2nccc2n1 (stereo not given) + C=CC(=O)N1CCN(c2nc(OCC3CCCN3C)nc3c(F)c(-c4nc(N)cc(C)c4C(F)(F)F)c(Cl)cc23)C(C)C1 turned out to be 90.3

The value of viability, T/C measured for the compound CC1(O)CCCC1n1c(=O)c(C(F)F)cc2cnc(NC3CCN(S(C)(=O)=O)CC3)nc21 (stereo not given) + C=CC(=O)N1CCN(c2nc(OCC3CCCN3C)nc3c(F)c(-c4nc(N)cc(C)c4C(F)(F)F)c(Cl)cc23)C(C)C1 turned out to be 21.5

----------
System: 377384-186-R-J1-PDC complex spheroid viability
Experiment: Anticancer human tumor 377384-186-R-J1-PDC cell line growth inhibition [RAS];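 note: spheroids exposed to compounds for seven days before readout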
Details: second compound 0.1 µM; first compound 0.316 µM; active compounds read low
Metric: viability, T/C (%)
Write down the numeric answer in % and omit the unit.

{"Molecule": "Cc1nc(N2CCC3(CC2)COC(C)C3N)c(CO)nc1Sc1ccnc(N)c1Cl (centres undefined) + C=CC(=O)N1CCN(c2nc(OCC3CCCN3C)nc3c(F)c(-c4nc(N)cc(C)c4C(F)(F)F)c(Cl)cc23)C(C)C1", "System tested": "377384-186-R-J1-PDC complex spheroid viability", "viability, T/C [%]": 70.7}
{"Molecule": "O=C(c1ccc(F)c(F)c1Nc1ccc(I)cc1F)N1CC(O)([C@@H]2CCCCN2)C1 + C=CC(=O)N1CCN(c2nc(OCC3CCCN3C)nc3c(F)c(-c4nc(N)cc(C)c4C(F)(F)F)c(Cl)cc23)C(C)C1", "System tested": "377384-186-R-J1-PDC complex spheroid viability", "viability, T/C [%]": 2.8}
{"Molecule": "Nc1ccn(C2OC(CO)C(O)C2(F)F)c(=O)n1 (centres undefined) + C=CC(=O)N1CCN(c2nc(OCC3CCCN3C)nc3c(F)c(-c4nc(N)cc(C)c4C(F)(F)F)c(Cl)cc23)C(C)C1", "System tested": "377384-186-R-J1-PDC complex spheroid viability", "viability, T/C [%]": 3.27}

The value of viability, T/C measured for the molecule CCN1CCN(Cc2ccc(Nc3ncc(F)c(-c4cc(F)c5nc(C)n(C(C)C)c5c4)n3)nc2)CC1 + C#Cc1c(F)ccc2cc(O)cc(-c3ncc4c(N5CC6CCC(C5)N6)nc(OCC56CCCN5CC(F)C6)nc4c3F)c12 turned out to be 3.64

The value of viability, T/C measured for the molecule CC(=O)OC12COC1CC(O)C1(C)C(=O)C(O)C3=C(C)C(OC(=O)C(O)C(NC(=O)OC(C)(C)C)c4ccccc4)CC(O)(C(OC(=O)c4ccccc4)C21)C3(C)C (centres undefined) + C=CC(=O)N1CCN(c2nc(OCC3CCCN3C)nc3c(F)c(-c4nc(N)cc(C)c4C(F)(F)F)c(Cl)cc23)C(C)C1 turned out to be 9.95

The value of viability, T/C measured for the molecule CC(C)NCC(C(=O)N1CCN(c2ncnc3c2C(C)CC3O)CC1)c1ccc(Cl)cc1 (centres undefined) + C=CC(=O)N1CCN(c2nc(OCC3CCCN3C)nc3c(F)c(-c4nc(N)cc(C)c4C(F)(F)F)c(Cl)cc23)C(C)C1 turned out to be 86.5

The value of viability, T/C measured for the molecule C=CC(=O)Nc1cc(Nc2nccc(-c3cn(C)c4ccccc34)n2)c(OC)cc1N(C)CCN(C)C + C#Cc1c(F)ccc2cc(O)cc(-c3ncc4c(N5CC6CCC(C5)N6)nc(OCC56CCCN5CC(F)C6)nc4c3F)c12 turned out to be 2.22

The value of viability, T/C measured for the molecule CC(C)NCC(C(=O)N1CCN(c2ncnc3c2C(C)CC3O)CC1)c1ccc(Cl)cc1 (centres undefined) + C#Cc1c(F)ccc2cc(O)cc(-c3ncc4c(N5CC6CCC(C5)N6)nc(OCC56CCCN5CC(F)C6)nc4c3F)c12 turned out to be 8.54

The value of viability, T/C measured for the molecule C[C@@H](NC(=O)c1ncnc(N)c1Cl)c1ncc(C(=O)Nc2cc(C(F)(F)F)c(Cl)cn2)s1 + C=CC(=O)N1CCN(c2nc(OCC3CCCN3C)nc3c(F)c(-c4nc(N)cc(C)c4C(F)(F)F)c(Cl)cc23)C(C)C1 turned out to be 92.3

Hello, the source for this data is PubChem BioAssay AID2060903, in case you need it.
